Recorded Trypanocidal activity, cures for the following molecules
System: Trypanosoma rhodesiense
Assay: In vivo trypanocidal activity in infected mice (protocol based on Rane et al.)
Details: 53 mg/kg, subcutaneous

Q: Fill: Trypanocidal activity, cures (Trypanosoma rhodesiense) for this molecule C[n+]1c(-c2ccc(C=CC=NNC(=N)N)cc2)cn2ccccc21
A: 5/5

Q: Fill: Trypanocidal activity, cures (Trypanosoma rhodesiense) for this molecule C[n+]1c(-c2ccc(C(N)=S)cc2)cn2ccccc21
A: 5/5

Q: Fill: Trypanocidal activity, cures (Trypanosoma rhodesiense) for this molecule C[n+]1c(-c2ccc(C(=N)N)cc2)cn2cc(C(=N)N)ccc21
A: 2/5

Q: Fill: Trypanocidal activity, cures (Trypanosoma rhodesiense) for this molecule C[n+]1c(-c2ccc(C(N)=NO)cc2)cn2ccccc21
A: 5/5

Q: Fill: Trypanocidal activity, cures (Trypanosoma rhodesiense) for this molecule C[n+]1c(-c2ccc(C(=N)N)cc2)c([N+](=O)[O-])n2ccccc21
A: 1/5

Q: Fill: Trypanocidal activity, cures (Trypanosoma rhodesiense) for this molecule C[n+]1c(-c2ccc(C(=N)N)cc2)cn2ccsc21
A: 2/5

Q: Fill: Trypanocidal activity, cures (Trypanosoma rhodesiense) for this molecule C[n+]1c(-c2ccc(C(=N)N)cc2)cn2ccccc21
A: 5/5

Q: Fill: Trypanocidal activity, cures (Trypanosoma rhodesiense) for this molecule C[n+]1c(-c2ccc(C=NNc3ncn[nH]3)cc2)cn2ccsc21 [BK2403S]
A: 3/5

Q: Fill: Trypanocidal activity, cures (Trypanosoma rhodesiense) for this molecule C[n+]1c(-c2ccc(C(N)=NO)cc2)cn2ccsc21
A: 2/10

Q: Fill: Trypanocidal activity, cures (Trypanosoma rhodesiense) for this molecule C[n+]1c(-c2ccc(C=NNC(N)=S)cc2)cn2ccccc21
A: 1/5

Q: Fill: Trypanocidal activity, cures (Trypanosoma rhodesiense) for this molecule CC(=O)Nc1ccc(-c2cn3ccccc3[n+]2C)cc1
A: 4/5

Q: Fill: Trypanocidal activity, cures (Trypanosoma rhodesiense) for this molecule CC(=O)Nc1ccc(-c2cn3ccc4ccccc4c3[n+]2C)cc1
A: 1/5

Q: Fill: Trypanocidal activity, cures (Trypanosoma rhodesiense) for this molecule Cc1ccc2n(c1)cc(-c1ccc(C(=N)N)cc1)[n+]2C
A: 2/5

Q: Fill: Trypanocidal activity, cures (Trypanosoma rhodesiense) for this molecule Cc1ccc2n(c1)cc(-c1ccc(C(N)=NO)cc1)[n+]2C
A: 2/5

====

System: Trypanosoma rhodesiense
Experiment: In vivo trypanocidal activity in infected mice (protocol based on Rane et al.)
Details: 106 mg/kg, subcutaneous
Recorded Increase in survival for the following compounds
Report the figure in days without appending any unit label.

Record excerpt, results attached:
Compound: C[n+]1c(-c2ccc(C(N)=S)cc2)cn2ccccc21
Endpoint: Increase in survival
Value Unit: days
Numeric Value: 3.2
//
Compound: C[n+]1c(-c2ccc(C(=N)N)cc2)c([N+](=O)[O-])n2ccccc21
Endpoint: Increase in survival
Value Unit: days
Numeric Value: 3.0
//
Compound: CC(=O)Nc1ccc(-c2cn3ccccc3[n+]2C)cc1 [BJ83315]
Endpoint: Increase in survival
Value Unit: days
Numeric Value: 3.7
//
Compound: CC(=O)Nc1ccc(-c2cn3cc(C)ccc3[n+]2C)cc1
Endpoint: Increase in survival
Value Unit: days
Numeric Value: 1.3
//
Compound: COC(=O)c1ccc2n(c1)cc(-c1ccc(NC(C)=O)cc1)[n+]2C
Endpoint: Increase in survival
Value Unit: days
Numeric Value: 4.2

Here's the next entry for you.
Q: Give recorded Increase in survival. C[n+]1c(-c2ccc(C(N)=NO)cc2)cn2cc(Cl)ccc21
A: 5.2

====

Recorded Increase in survival for the following compounds
Test system: Trypanosoma rhodesiense
Experiment: In vivo trypanocidal activity in infected mice (protocol based on Rane et al.)
Details: 424 mg/kg, subcutaneous
Report the figure in days without appending any unit label.

Structure String: CC(=O)Nc1ccc(-c2cn3c(C)cc(C)cc3[n+]2C)cc1
Value Unit: days
Increase in survival: 9.4
//
Structure String: Cn1cc(-c2ccc(C=NNC(N)=O)cc2)[n+](C)c1
Value Unit: days
Increase in survival: 5.8
//
Structure String: COC(=O)c1ccc2n(c1)cc(-c1ccc(NC(C)=O)cc1)[n+]2C
Value Unit: days
Increase in survival: 4.2

Q: Give recorded Increase in survival. CC(=O)Nc1ccc(-c2cn3ccccc3[n+]2C)cc1
A: 2.9

Q: Give recorded Increase in survival. CC(=O)Nc1ccc(-c2cn3cc(I)ccc3[n+]2C)cc1
A: 6.5

Q: Give recorded Increase in survival. CC(=O)Nc1ccc(-c2cn3cc(C)ccc3[n+]2C)cc1
A: 8.5

====

Test system: Trypanosoma rhodesiense
Test: In vivo trypanocidal activity in infected mice (protocol based on Rane et al.)
Conditions: 26 mg/kg, subcutaneous
Recorded Increase in survival for the following compounds
Report the figure in days without appending any unit label.

Q: Give recorded Increase in survival. C[n+]1c(-c2ccc(C(N)=NO)cc2)cn2ccsc21
A: 2.7

Q: Give recorded Increase in survival. C[n+]1c(-c2ccc(C(N)=S)cc2)cn2ccccc21
A: 4.0

Q: Give recorded Increase in survival. CC(=O)Nc1ccc(-c2cn3c(C)cc(C)cc3[n+]2C)cc1
A: 8.9

Q: Give recorded Increase in survival. C[n+]1c(-c2ccc(C=NNC(N)=O)cc2)cn2ccccc21
A: 7.7

Q: Give recorded Increase in survival. C[n+]1c(-c2ccc(C=NNC(N)=S)cc2)cn2ccccc21
A: 4.4

Q: Give recorded Increase in survival. C=CC[n+]1c(-c2ccc(C=NNc3ncn[nH]3)cc2)cn2ccccc21
A: 2.3

====

Test system: Trypanosoma rhodesiense
Test: In vivo trypanocidal activity in infected mice (protocol based on Rane et al.)
Conditions: 0.8 mg/kg, subcutaneous
Recorded Trypanocidal activity, cures for the following compounds

Record excerpt, results attached:
Structure String: C[n+]1c(-c2ccc(C=NNc3nccs3)cc2)cn2ccccc21
Study System: Trypanosoma rhodesiense
Trypanocidal activity, cures: 4/5

Structure String: C[n+]1c(COc2ccc(C=NNC(=N)NO)cc2)cn2ccccc21
Study System: Trypanosoma rhodesiense
Trypanocidal activity, cures: 10/10

Structure String: C[n+]1c(-c2ccc(C=NNC(=N)N3CCCC3)cc2)cn2ccccc21
Study System: Trypanosoma rhodesiense
Trypanocidal activity, cures: 9/10

Structure String: C[n+]1cccc(COc2ccc(C=NNC(=N)N3CCCC3)cc2)c1
Study System: Trypanosoma rhodesiense
Trypanocidal activity, cures: 7/10

Q: Fill: Trypanocidal activity, cures (Trypanosoma rhodesiense) for this compound C[n+]1c(C=Cc2ccc(C=NNC(=N)N)cc2)cn2ccccc21
A: 10/10

====

Tested on: Trypanosoma rhodesiense
Assay: In vivo trypanocidal activity in infected mice (protocol based on Rane et al.)
Details: 13.3 mg/kg, subcutaneous
Recorded Increase in survival for the following molecules
Report the figure in days without appending any unit label.

Record excerpt, results attached:
Molecule: C[n+]1c(-c2ccc(C(N)=S)cc2)cn2ccccc21
Study System: Trypanosoma rhodesiense
Increase in survival, days: 3.3
//
Molecule: C[n+]1c(-c2ccc(C(N)=NO)cc2)cn2ccccc21
Study System: Trypanosoma rhodesiense
Increase in survival, days: 3.1
//
Molecule: C[n+]1c(-c2ccc(C=NNc3ncn[nH]3)cc2)cn2ccsc21 [BK2403S]
Study System: Trypanosoma rhodesiense
Increase in survival, days: 5.0
//
Molecule: C[n+]1c(-c2ccc(C(=N)N)cc2)cn2ccccc21
Study System: Trypanosoma rhodesiense
Increase in survival, days: 3.2
//
Molecule: CCN(CC)CCNC(=N)c1ccc(-c2cn3ccccc3[n+]2C)cc1
Study System: Trypanosoma rhodesiense
Increase in survival, days: 6.6
//
Molecule: C[n+]1c(-c2ccc(C=NNC3=NCCN3)cc2)cn2ccsc21
Study System: Trypanosoma rhodesiense
Increase in survival, days: 28.0

Here's the next entry for you.
Q: Give recorded Increase in survival. C[n+]1c(COc2ccc(C(=N)N)cc2)cn2ccccc21
A: 12

====

Recorded Trypanocidal activity, cures for the following compounds
System: Trypanosoma rhodesiense
Experiment: In vivo trypanocidal activity in infected mice (protocol based on Rane et al.)
Details: 13 mg/kg, subcutaneous

Record excerpt, results attached:
Structure String: C[n+]1ccccc1COc1ccc(C=NNC2=NCCCN2)cc1
Result: 9/10

Structure String: C[n+]1ccc(COc2ccc(C=NNC3=NCCN3)cc2)cc1
Result: 8/10

Structure String: C[n+]1c(-c2ccc(C=CC=NNC3=NCCCN3)cc2)cn2ccccc21
Result: 5/5

Structure String: CCN=C(NCC)NN=Cc1ccc(OCc2n(C)cc[n+]2C)cc1
Result: 3/5

Structure String: C[n+]1cccc(COc2ccc(C=NNC(=N)N3CCCC3)cc2)c1
Result: 5/5

Q: Give recorded Trypanocidal activity, cures. C[n+]1c(-c2ccc(C=CC=NNC(=N)N)cc2)cn2ccccc21
A: 10/10

Q: Give recorded Trypanocidal activity, cures. C[n+]1c(C=Cc2ccc(C=NNC(=N)N3CCCC3)cc2)cn2ccccc21
A: 10/10

Q: Give recorded Trypanocidal activity, cures. Cn1cc[n+](C)c1C=Cc1ccc(C=NNC2=NCCCN2)cc1
A: 10/10
